Molecular target: human TLR9 (Homo sapiens, UniProt Q9NR96)
Construct: expressed in transfected cells; host or cells: HEK293 (ATCC No. CRP-1573 [sic])
Sequence (Q9NR96 26-1032): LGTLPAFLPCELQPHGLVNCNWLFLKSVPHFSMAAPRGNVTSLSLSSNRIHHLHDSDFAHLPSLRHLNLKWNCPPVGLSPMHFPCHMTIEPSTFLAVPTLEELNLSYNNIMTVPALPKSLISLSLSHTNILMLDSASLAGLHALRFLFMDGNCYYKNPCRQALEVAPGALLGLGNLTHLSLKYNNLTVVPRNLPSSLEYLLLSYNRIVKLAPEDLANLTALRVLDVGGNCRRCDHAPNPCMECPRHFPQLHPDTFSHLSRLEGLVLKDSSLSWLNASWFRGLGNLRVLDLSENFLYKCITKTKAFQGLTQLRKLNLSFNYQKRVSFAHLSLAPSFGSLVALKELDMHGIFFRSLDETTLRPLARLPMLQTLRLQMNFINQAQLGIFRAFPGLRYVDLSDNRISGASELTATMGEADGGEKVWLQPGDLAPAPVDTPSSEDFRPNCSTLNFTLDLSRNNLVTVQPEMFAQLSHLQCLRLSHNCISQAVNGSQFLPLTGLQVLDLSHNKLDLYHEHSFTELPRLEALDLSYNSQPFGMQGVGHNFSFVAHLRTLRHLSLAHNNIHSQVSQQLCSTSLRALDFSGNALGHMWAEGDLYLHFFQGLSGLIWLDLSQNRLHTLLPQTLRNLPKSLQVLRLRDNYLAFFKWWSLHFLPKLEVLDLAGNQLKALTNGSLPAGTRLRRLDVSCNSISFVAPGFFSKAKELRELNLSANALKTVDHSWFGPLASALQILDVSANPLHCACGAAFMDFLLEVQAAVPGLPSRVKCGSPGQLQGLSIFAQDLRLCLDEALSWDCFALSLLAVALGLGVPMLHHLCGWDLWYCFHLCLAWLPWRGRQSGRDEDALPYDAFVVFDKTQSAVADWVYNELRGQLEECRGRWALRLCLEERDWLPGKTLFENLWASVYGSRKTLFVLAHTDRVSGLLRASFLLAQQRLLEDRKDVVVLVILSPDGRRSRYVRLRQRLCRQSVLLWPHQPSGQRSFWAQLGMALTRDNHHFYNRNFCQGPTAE
Test: Primary assay: HEK/TLR9 activation (NF-kB luciferase reporter, Oligo CpG 2006 stimulation)
Type: cell-based
Conditions: HEK293 transfected with human TLR9 and NF-kB luciferase; compound 30 min before Oligo CpG 2006; overnight; read-out: HEK/TLR9 IC50
Measurement kind: IC50 (nM)

>>> df
                              line_notation                            assayed_target  measurement_kind  result_number
0  O[C@H]1CC[C@H](NCCCOc2ccc(-c3nc4ccc(OCCCN[C@H]5CC[C@H](O)CC5)cc4o3)cc2)CC1  human TLR9 (Homo sapiens, UniProt Q9NR96)              IC50           20.2
1  CN(C)CCN(C)CCCOc1ccc(-c2nc3ccc(OCCCN(C)CCN(C)C)cc3o2)cc1  human TLR9 (Homo sapiens, UniProt Q9NR96)              IC50            8.7
2  CN(C)CCCN(C)CCCOc1ccc(-c2nc3ccc(OCCCN(C)CCCN(C)C)cc3o2)cc1  human TLR9 (Homo sapiens, UniProt Q9NR96)              IC50            3.4

[1] CN(C)CCCCCOc1ccc(-c2nc3ccc(OCCCCCN(C)C)cc3o2)cc1
[2] CN(C)CCCOc1ccc(-c2nc3ccc(OCCCN(C)C)cc3o2)cc1
Of 1 and 2 , whose reported IC50 is the larger number? Label of pick, please.
1

[A] c1cc(N2CCN(CCCOc3ccc(-c4nc5ccc(OCCCN6CCN(c7ccncc7)CC6)cc5o4)cc3)CC2)ccn1
[B] c1cc(-c2nc3ccc(OCCCN4CCC(N5CCCC5)CC4)cc3o2)ccc1OCCCN1CCC(N2CCCC2)CC1
[C] CN1CCCN(CCCOc2ccc(-c3nc4ccc(OCCCN5CCCN(C)CC5)cc4o3)cc2)CC1
[D] CCNCCCOc1ccc(-c2nc3ccc(OCCCNCC)cc3o2)cc1
Order the records so the highest IC50 appears first and the lowest last. Note for the reader: the ranking is given by listing the labels in the order requested.
D, A, B, C
(D: 100 nM, A: 27.6 nM, B: 12.5 nM, C: 5.6 nM)

[a] CCN(CC)CCN(CC)CCCOc1ccc(-c2nc3ccc(OCCCN(CC)CCN(CC)CC)cc3o2)cc1
[b] COCCNCCCOc1ccc(-c2nc3ccc(OCCCNCCOC)cc3o2)cc1
Of a and b , whose reported IC50 is the larger number? Label of pick, please.
b
(b: 23.3 nM, a: 9.6 nM)

[1] CCN(C)CCCOc1ccc(-c2nc3ccc(OCCCN(C)CC)cc3o2)cc1
[2] c1ccc(CNCCCOc2ccc(-c3nc4ccc(OCCCNCc5ccccn5)cc4o3)cc2)nc1
Of 1 and 2 , whose reported IC50 is the larger number? Label of pick, please.
2
(2: 19.7 nM, 1: 13.3 nM)
